# TEST TARGET: Tyrosine-protein phosphatase non-receptor type 1 (Homo sapiens) (UniProt P18031)
# Sequence (whole entry): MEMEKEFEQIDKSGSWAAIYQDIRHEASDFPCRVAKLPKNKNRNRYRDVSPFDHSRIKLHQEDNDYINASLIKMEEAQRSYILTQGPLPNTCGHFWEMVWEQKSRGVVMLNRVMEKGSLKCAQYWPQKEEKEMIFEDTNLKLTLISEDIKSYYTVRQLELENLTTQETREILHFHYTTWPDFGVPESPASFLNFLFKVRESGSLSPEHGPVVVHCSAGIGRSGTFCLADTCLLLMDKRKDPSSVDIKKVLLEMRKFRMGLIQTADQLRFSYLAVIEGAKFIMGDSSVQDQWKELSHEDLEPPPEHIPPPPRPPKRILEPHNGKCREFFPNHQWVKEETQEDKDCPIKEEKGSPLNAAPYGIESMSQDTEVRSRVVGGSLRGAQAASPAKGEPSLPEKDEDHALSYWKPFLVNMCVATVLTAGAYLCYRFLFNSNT
# TEST DESCRIPTION: Inhibition of PTP1B (unknown origin)
REPORTED ENDPOINT: inhibition

The following compounds have reported results that may help.
O=C(/C=C/c1ccc(O)c(O)c1)O[C@@H]1C[C@](O)(C(=O)O)C[C@@H](O)[C@H]1O Dose-dependent effect
O=C(/C=C/c1ccc(O)c(O)c1)O[C@H]1[C@H](O)C[C@](O)(C(=O)O)C[C@H]1OC(=O)/C=C/c1ccc(O)c(O)c1 Dose-dependent effect
O=C(/C=C/c1ccc(O)c(O)c1)O[C@@H]1C[C@@](O)(C(=O)O)C[C@@H](O)[C@@H]1O Dose-dependent effect
COC(=O)[C@]1(O)C[C@@H](O)[C@@H](OC(=O)/C=C/c2ccc(O)c(O)c2)[C@H](OC(=O)/C=C/c2ccc(O)c(O)c2)C1 Dose-dependent effect
O=C(/C=C/c1ccc(O)c(O)c1)O[C@@H]1C[C@](O)(C(=O)O)C[C@@H](OC(=O)/C=C/c2ccc(O)c(O)c2)[C@H]1O Dose-dependent effect

Ask: Reported inhibition for Tyrosine-protein phosphatase non-receptor type 1 (Homo sapiens) (UniProt P18031), given `COc1cc(/C=C/C(=O)O[C@H]2[C@H](O)C[C@](O)(C(=O)O)C[C@H]2OC(=O)/C=C/c2ccc(O)c(OC)c2)ccc1O` ?
Reply: Dose-dependent effect

Ask: Reported inhibition for Tyrosine-protein phosphatase non-receptor type 1 (Homo sapiens) (UniProt P18031), given `COC(=O)[C@]1(O)C[C@@H](OC(=O)/C=C/c2ccc(O)c(O)c2)[C@@H](O)[C@H](OC(=O)/C=C/c2ccc(O)c(O)c2)C1` ?
Reply: Dose-dependent effect

###

Let's go through some pIC50 measurements on Tyrosine-protein phosphatase non-receptor type 1 (Homo sapiens, UniProt P18031) together.
Just the number, please; pIC50 means minus log10 of the concentration in mol/L.

The following molecules have reported results that may help.
MOLECULE	pIC50
O=C(/C=C/c1ccc(O)c(O)c1)O[C@H]1[C@H](O)C[C@](O)(C(=O)O)C[C@H]1O	4.36
O=C(/C=C/c1ccc(O)c(O)c1)O[C@@H]1C[C@](O)(C(=O)O)C[C@@H](OC(=O)/C=C/c2ccc(O)c(O)c2)[C@H]1O	4.42
COC(=O)[C@]1(O)C[C@@H](O)[C@@H](OC(=O)/C=C/c2ccc(O)c(O)c2)[C@H](OC(=O)/C=C/c2ccc(O)c(O)c2)C1	4.25

Now look at this entry.
Ask: Report pIC50 for O=C(/C=C/c1ccc(O)c(O)c1)O[C@@H]1C[C@](OC(=O)/C=C/c2ccc(O)c(O)c2)(C(=O)O)C[C@@H](O)[C@H]1O [1,5-O-TRANS-DICAFFEOYLQUINIC ACID] please.
Reply: 4.45
